system: HepG2; test: Antiproliferative activity against human HepG2 cells expressing VEGFR2 assessed as cell growth inhibition measured after 48 hrs by MTT assay; format: functional, cell-based; conditions: HepG2, 48 h
Could you please mark t for values of IC50 below 70 µM and f for values at or above it?

Answered examples (5):
O=C(Nc1ccc(Nc2ccc([N+](=O)[O-])c3ncnc(O)c23)cc1)c1ccccc1F :: t
Cc1cccc(C(=O)Nc2cccc(Nc3ccc([N+](=O)[O-])c4ncnc(O)c34)c2)c1 :: f
O=C(Nc1ccc(Nc2ccc([N+](=O)[O-])c3ncnc(O)c23)cc1)Nc1cc(C(F)(F)F)ccc1Cl :: t
Cc1ccc(C(=O)Nc2cccc(Nc3ccc([N+](=O)[O-])c4ncnc(O)c34)c2)cc1 :: f
Cc1ccc(C(=O)Nc2ccc(Nc3ccc([N+](=O)[O-])c4ncnc(O)c34)cc2)cc1 :: t

Next up:
Consider `O=C(Nc1cccc(Nc2ccc([N+](=O)[O-])c3ncnc(O)c23)c1)c1ccccc1` . Does its IC50 lie strictly below 70 µM?
f
